Test system: Staphylococcus aureus SA113
value.type: MIC

Illustrative cases are given below, each with its answer.
- CC(C)C[C@H](NC(=O)[C@H](CC(C)C)NC(=O)[C@H](CC(N)=O)NC(=O)[C@H](C)NC(=O)[C@H](CC(N)=O)NC(=O)[C@H](CC(C)C)NC(=O)[C@@H](N)C(C)C)C(=O)N[C@@H](CCCN=C(N)N)C(=O)O: ≥ 1250 µM
- CC[C@H](C)[C@H](N)C(=O)N[C@@H](CCCCN)C(=O)N[C@@H](C)C(=O)N[C@@H](CCC(N)=O)C(=O)NCC(=O)N[C@@H](CC(C)C)C(=O)N1CCC[C@H]1C(=O)N[C@@H](CCC(N)=O)C(=O)N[C@@H](CCC(=O)O)C(=O)O: ≥ 1250 µM
- CC[C@H](C)[C@H](N)C(=O)N[C@@H](CCCCN)C(=O)N[C@@H](Cc1cnc[nH]1)C(=O)N[C@@H](CCCN=C(N)N)C(=O)NCC(=O)N[C@@H](CC(C)C)C(=O)N1CCC[C@H]1C(=O)N[C@@H](CCC(N)=O)C(=O)N[C@@H](CCC(=O)O)C(=O)O: ≥ 1250 µM
- CC[C@H](C)[C@H](N)C(=O)N[C@@H](CCCN=C(N)N)C(=O)N[C@@H](Cc1cnc[nH]1)C(=O)N[C@@H](CCC(N)=O)C(=O)NCC(=O)N[C@@H](CC(C)C)C(=O)N1CCC[C@H]1C(=O)N[C@@H](CCC(N)=O)C(=O)N[C@@H](CCC(=O)O)C(=O)O: ≥ 2500 µM

Proceeding to the next molecule to report its MIC.
[Q] Request body: readout MIC, system Staphylococcus aureus SA113, query `CC(C)C[C@H](NC(=O)[C@H](CC(C)C)NC(=O)[C@H](CC(N)=O)NC(=O)[C@H](CCC(=O)O)NC(=O)[C@H](CC(N)=O)NC(=O)[C@H](CC(C)C)NC(=O)[C@@H](N)C(C)C)C(=O)N[C@@H](Cc1cnc[nH]1)C(=O)O` . Return the value.
[A] ≥ 1250 µM
